target: 5-hydroxytryptamine receptor 1A (Homo sapiens)
Sequence (P08908 whole entry): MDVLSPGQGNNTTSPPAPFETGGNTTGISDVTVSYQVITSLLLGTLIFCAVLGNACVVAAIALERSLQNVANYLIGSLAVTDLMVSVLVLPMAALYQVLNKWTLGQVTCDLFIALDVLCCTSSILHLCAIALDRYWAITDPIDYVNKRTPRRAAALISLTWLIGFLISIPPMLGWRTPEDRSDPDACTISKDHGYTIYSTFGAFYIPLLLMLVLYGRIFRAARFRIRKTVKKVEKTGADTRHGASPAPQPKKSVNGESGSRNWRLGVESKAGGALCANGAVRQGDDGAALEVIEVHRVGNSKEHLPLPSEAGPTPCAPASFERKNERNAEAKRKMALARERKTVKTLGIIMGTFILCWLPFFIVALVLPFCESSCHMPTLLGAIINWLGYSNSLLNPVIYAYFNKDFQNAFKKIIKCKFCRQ
assayMetric: Ki

[in] # return recorded Ki for input Cc1sc(C)c2c1CCCc1c[nH]nc1-2
[out] > 1000 nM
